The entries below are paired with their reported EGFR-Wt mean.
# TARGET_ENTITY: T1, EGFR-Wt (Homo sapiens, UniProt P00533)
# T1 construct: with the advantage of testing full-length integral membrane proteins; (GGGGS)2 linker-Cub (human ubiquitin aa 35-76)-GAL4(1-147)-mNFkB(364-550) (C); expressed in transfected cells
# PROCEDURE_TEXT: MaMTH EGFR-interactor screen, lentiviral preys against EGFR-wildtype bait (interaction score)
# Format: cell-based
# CONDITIONS_USED: MaMTH interaction score of prey with EGFR-Wt bait, mean
Respond using a number only.

-- ask Which value of EGFR-Wt mean has been reported for SH3GL3 (protein, UniProt Q99963 1-347, looked up) Endophilin-A3: MSVAGLKKQFHKASQLFSEKISGAEGTKLDDEFLDMERKIDVTNKVVAEILSKTTEYLQPNPAYRAKLGMLNTVSKIRGQVKTTGYPQTEGLLGDCMLKYGKELGEDSTFGNALIEVGESMKLMAEVKDSLDINVKQTFIDPLQLLQDKDLKEIGHHLKKLEGRRLDYDYKKKRVGKIPDEEVRQAVEKFEESKELAERSMFNFLENDVEQVSQLAVFIEAALDYHRQSTEILQELQSKLQMRISAASSVPRREYKPRPVKRSSSELNGVSTTSVVKTTGSNIPMDQPCCRGLYDFEPENQGELGFKEGDIITLTNQIDENWYEGMIHGESGFFPINYVEVIVPLPQ in the records?
-- reply 3.41

-- ask Which value of EGFR-Wt mean has been reported for CISH (protein, UniProt Q9NSE2 1-258, looked up) Cytokine-inducible …: MVLCVQGPRPLLAVERTGQRPLWAPSLELPKPVMQPLPAGAFLEEVAEGTPAQTESEPKVLDPEEDLLCIAKTFSYLRESGWYWGSITASEARQHLQKMPEGTFLVRDSTHPSYLFTLSVKTTRGPTNVRIEYADSSFRLDSNCLSRPRILAFPDVVSLVQHYVASCTADTRSDSPDPAPTPALPMPKEDAPSDPALPAPPPATAVHLKLVQPFVRRSSARSLQHLCRLVINRLVADVDCLPLPRRMADYLRQYPFQL in the records?
-- reply 1.29
